read-out: BCL2L11 (gene 10018); experiment: LTEA_HepaRG_BCL2L11: Life Technologies and Expression Analysis (LTEA) Assay for Bcl-2 (BCL2L11) gene using HepaRG (AID 2283473); conditions: mRNA level, 48 h; actives raise or lower the signal
The source made the active and inactive calls. How the source made its calls: active means hit-call score of the fitted dose curve at least 0.9, where 1 is the maximum; inactive means score below 0.9.
Bench note: report the call from active, inactive

- molecule: "COCCOCCO"
  qualitative.label: "inactive"
- molecule: "ClC(Cl)c1ccccc1"
  qualitative.label: "inactive"
- molecule: "CC(C)(C)OOC(C)(C)C"
  qualitative.label: "inactive"

**Q:** Status in this test for Nc1cc2c3c(c1)C(c1ccccc1)=N[C@@H](NC(=O)c1cccnc1)C(=O)N3CC2 ?
**A:** inactive

**Q:** Next: CC(C)(C)c1ccc(O)cc1
**A:** inactive

**Q:** Next: CCCN(CCC)c1c([N+](=O)[O-])cc(C(C)C)cc1[N+](=O)[O-]
**A:** active

**Q:** Next: [N-]=[N+]=[N-]
**A:** active

**Q:** Next: O=C(O)C1C(C(=O)O)C2(Cl)C(Cl)=C(Cl)C1(Cl)C2(Cl)Cl (stereo unspecified)
**A:** inactive

**Q:** Next: CCCCCCCc1ccc(O)cc1
**A:** inactive
